# Tested on: SK-MEL-28 melanoma
# Method notes: NCI-60 one-dose screen, 48 h (100 = growth as untreated, 0 = no growth, -100 = all killed)
# Particulars: 10 µM unless noted
Compounds without any hit were thinned out: in the full panel of roughly 83,000, 20% have a hit.
growth reference
Return type: number; implicit unit %.

Examples with their reported growth follow.
                                   compound  experimental_target  units_label  measured
0  O=c1c2c3c(sc2n2c(-c4cc(-c5ccccc5)nn4-c4ccccc4)nnc2n1Cc1ccccc1)CCCC3   SK-MEL-28 melanoma            %       111
1  CC/C=C\C[C@H](O)C/C=C1/C(=O)C=C[C@@H]1C/C=C\CCCCO   SK-MEL-28 melanoma            %      16.7
2  COc1ccc(-c2nc(SCCC(C)C)nc(N/N=C\c3cccc([N+](=O)[O-])c3)c2C#N)cc1   SK-MEL-28 melanoma            %      67.5
3  CC(=O)C(C)Cc1cc2c(cc1C)C(C)(C)CCC2(C)C (stereo not given)   SK-MEL-28 melanoma            %       106
4  COc1c(CCC[P+](c2ccccc2)(c2ccccc2)c2ccccc2)cc2c(c1OC)OCO2   SK-MEL-28 melanoma            %      25.1

Ask: Need growth, item `CCOC(CN=Cc1cc(C)c2[nH]c3ccccc3c2c1C)OCC`
Result: 103

Ask: Could you tell me which growth is on file for CCN(CC)CCCC(C)Nc1c2ccc(Cl)cc2nc2ccc(O)cc12 (stereo not given) ?
Result: 57.5

Ask: # get_value(readout='growth', item= `COc1ccc(-c2nc3c(N)c(CO)c(C)nc3o2)cc1` )
Result: 106

Ask: If you can, please state the reported growth value of `CCN(CC)Cc1cccc(C(=O)OC)c1` .
Result: 104

Ask: Which measured growth value corresponds to `COc1ccc2oc3c(C)c4c(c(C)c3c2c1)C(=O)N(Cc1ccccc1)C4=O` ?
Result: 103

----------
# Tested on: HCT-116 colon
# Method notes: NCI-60 one-dose screen, 48 h (100 = growth as untreated, 0 = no growth, -100 = all killed)
# Particulars: 10 µM unless noted
This is part of a sample that, as a whole, favours compounds with a hit. Of some 83,000 tested, about 20% had one in any assay.
Measure: growth (%)
Express your answer in %, writing the number without its unit.

Ask: Recall the recorded growth for `CCCc1cc2c(=O)c(C(=O)OC)c[nH]c2cc1N(CC)CC` with HCT-116 colon and state it.
Result: 96.3

Ask: Give recorded growth with HCT-116 colon for the following compound: `C=C(C)[C@@H]1CC[C@]2(C(=O)NC3CCCCC3)CC[C@]3(C)[C@H](CC[C@@H]4[C@@]5(C)CCCNC(C)(C)[C@@H]5CC[C@]43C)[C@@H]12`
Result: -13.8

Ask: Please state recorded growth (tested on HCT-116 colon) of `CC/C=C/C/C=C/C/C=C/C/C=C/C/C=C/C/C=C/CCC(=O)Nc1ccn([C@@H]2O[C@H](CO)[C@@H](O)C2(F)F)c(=O)n1`
Result: 12.1

Ask: Identify the measured growth of `Cc1ccc(Cl)c(NS(=O)(=O)c2ccc(-c3cnc(C4CC4)o3)cc2)c1` for HCT-116 colon.
Result: 13.8

Ask: GET /values?readout=growth&system=HCT-116 colon&item= Cc1ccc(-c2cc3c(cc2O)C2CCCCC2(N2CCOCC2)O3)cc1 (stereo not drawn)
Result: 97.3

Ask: Request: growth, test system HCT-116 colon, entry COc1ccc(C2=Nc3c(N)ncnc3NC(c3ccc4c(c3)OCO4)C2)cc1 (stereo not drawn)
Result: 74.2

Ask: Lab request: please report growth under test system HCT-116 colon for O=C1CC(N2C(=O)/C(=C/C(Cl)=C\c3ccc([N+](=O)[O-])cc3)SC2=S)C(=O)N1c1ccc(O)cc1 (stereo not drawn)
Result: -31.2

Ask: Give growth (HCT-116 colon) of the following compound: CCCCN(CCCC)CC(C)(C)C(O)c1ccc(OC)c2ccccc12 (stereo not drawn)
Result: 3.51

Ask: Identify the measured growth of `COc1ccc(-c2ccc3c(c2)sc2nc(-c4ccc(F)cc4)cn23)cc1` for HCT-116 colon.
Result: 42.3

----------
# Tested on: HOP-62 NSCLC
# Method notes: NCI-60 one-dose screen, 48 h
# Particulars: 10 µM unless noted
The panel holds about 83,000 compounds, 20% with a hit somewhere; the sample as a whole holds those more often. Calls of active or inactive are those of the source. How the source made its calls: active means growth percent below 10; inactive means the rest.
# valid calls are active, inactive; nothing else

Sample answers from the record:
In [3]: df
Out[3]:
                                   compound  experimental_target  category
0  CCCCn1c(=O)c2c(nc3n2CCCN3CCc2ccc(OCC(=O)NCCN(CC)CC)cc2)n(CCCC)c1=O         HOP-62 NSCLC  inactive
1  N#CCN1C(=O)C2C3=C(CCCC3)SC2N=C1CN1CCCC1 (stereo not given)         HOP-62 NSCLC  inactive
2  CC(=O)[C@@H]1CC[C@]2(COS(=O)(=O)c3ccc(C)cc3)CC[C@]3(C)[C@H](CC[C@@H]4[C@@]5(C)CCCNC(C)(C)[C@@H]5CC[C@]43C)[C@@H]12         HOP-62 NSCLC  inactive

Ask: Could you check what this test reported for `CN1CCN(CCCOc2ccc3nc(Nc4ccc(F)c(F)c4)ccc3c2)CC1` ?
Result: inactive

Ask: Hello, I am checking results. What call was entered for `COc1ccc(-c2nc(SCCC(C)C)nc(N/N=C\c3cccc(Cl)c3)c2C#N)cc1` ?
Result: inactive

Ask: Per the assay record, what outcome was assigned to `O=C1/C(=C/c2ccccc2)CCc2nc3ccccc3c(/C=C/c3ccc(Cl)cc3)c21` ?
Result: inactive

Ask: Could you check what this test reported for O=C(NC(Cc1nnc2n(Cc3ccccc3)c(=O)c3c4c(sc3n12)CCCC4)c1ccc(Cl)cc1)c1ccccc1 (stereo not given) ?
Result: inactive

Ask: What classification did `S=C(c1ccc2c(c1)OCO2)N1CCN(c2ccccc2Cl)CC1` end up with in this test?
Result: inactive

Ask: Please let me know the test result on file for `O=c1[nH]ccc2nc(N3CCC(O)CC3)nc(Nc3ccc(N4CCOCC4)cc3)c12` .
Result: inactive

Ask: Which result was noted for this compound in the test: `O=C1/C(=C/c2ccc(Br)cc2)C=C(c2ccccc2)N1CCc1ccccc1`
Result: active

----------
# Tested on: RPMI-8226 leukemia
# Method notes: NCI-60 one-dose screen, 48 h
# Particulars: 10 µM unless noted
This is part of a sample that, as a whole, favours compounds with a hit. Of some 83,000 tested, about 20% had one in any assay. Active and inactive are the calls of the source. The calls were made as follows: active = growth percent below 10; inactive = the rest.
// one of yes (1) for active, no (0) for inactive, no free text

Compound	Category
CCN(CC)S(=O)(=O)c1cccc(-c2ccc3c(NC(=O)C4CC4)n[nH]c3c2)c1	no (0)
CCOC(=O)C/C(C)=N\NC(=O)c1ccncc1	no (0)
O=C(Cc1ccc(F)c(F)c1)Nc1cc(C2(C(F)(F)F)CC2)nn1Cc1ccccc1	yes (1)

Kindly consider the entry below.
Ask: Look up the recorded call for `Cc1cc(C)c(-c2c(C)cc(C)cc2CBr)c(CBr)c1` in this test.
Result: no (0)

----------
# System: MDA-MB-435 melanoma
# Method notes: NCI-60 one-dose screen, 48 h (100 = growth as untreated, 0 = no growth, -100 = all killed)
# Particulars: 10 µM unless noted
This is part of a sample that, as a whole, favours compounds with a hit. Of some 83,000 tested, about 20% had one in any assay.
Measure: growth (%)
Dear colleague, please return just the value in %, with no unit written.

Example entries and their recorded answers appear below.
In [3]: df
Out[3]:
                                   compound  measure  measured
0  N#Cc1c(-c2ccccc2)cc(-c2ccc(Nc3nc(Nc4ccc(F)cc4)nc(Nc4ccc(F)cc4)n3)cc2)nc1N   growth       105
1  COc1cc(C2CC(=O)Nc3c2c(C)nn3-c2nc3ccccc3[nH]2)c(OC)c2c1OCO2 (stereo not drawn)   growth     -20.2
2  COc1ccc2c(c1)C(=O)/C(=C/c1cccc(OCC(=O)Nc3nc(C)c(C)s3)c1)O2   growth      15.3

Ask: Quick one: growth of `CNc1ccc(NC)c2c1C(=O)c1ccccc1C2=O` ?
Result: 110

Ask: Which growth is reported for this compound? `COC(=O)CCC1=C(C)C2=NC1=CC1=NC(=CC3=NC(=Cc4[nH]c(/c(=C(/C)O)c4C)=C2)C(C(C)=O)=C3C)C(C)=C1CCC(=O)OC`
Result: 108

Ask: Sample O=C1CC(N2C(=O)/C(=C/C(Cl)=C\c3ccc([N+](=O)[O-])cc3)SC2=S)C(=O)N1c1ccc(O)cc1 (stereo not drawn) — what was its growth?
Result: -12

Ask: Give the measured growth of `CCOc1c(C#N)nnc2c(C#N)c(NC(=O)c3ccccc3)nn12` .
Result: 102

Ask: So what does the record say about growth for `CN(C)c1ccc(/C=C/C(=O)c2cccc(Nc3nc(Nc4ccccc4)nc(Nc4ccccc4)n3)c2)cc1` ?
Result: 101
